Tested on: DNA
Assay: Displacement of ethidium bromide from calf thymus DNA assessed as ratio of concentration of ethidium in ethidium DNA complex to drug concentration by fluorometric assay
Assay type: nucleic-acid assay
Conditions: Bos taurus
Readout label: Kapp (×10⁷ /M)

In the examples that follow, each entry is paired with its recorded Kapp.
CN(C)CCNc1c(N)cc2c3c(cccc13)C(=O)N(CCN(C)C)C2=O :: 4.5
CN(C)CCNc1ccc2c3c(cccc13)C(=O)N(CCN(C)C)C2=O :: 2.3
CN(C)CCCN1C(=O)c2cccc3c(NCCN(C)C)ccc(c23)C1=O :: 1.5
CCN(CC)CCNc1ccc2c3c(cccc13)C(=O)N(CCN(C)C)C2=O :: 2.3

A. CN(C)CCCNc1c(N)cc2c3c(cccc13)C(=O)N(CCCN(C)C)C2=O
B. CN(C)CCN1C(=O)c2cccc3c(NCCNCCO)ccc(c23)C1=O
C. CN(C)CCCNc1ccc2c3c(cccc13)C(=O)N(CCCN(C)C)C2=O
D. CN(C)CCNc1c([N+](=O)[O-])cc2c3c(cccc13)C(=O)N(CCN(C)C)C2=O
Order the 4 compounds from highest to lowest Kapp. Respond with an ordered listing of the labels, as requested.
D, A, B, C

---

Test system: DNA
Test: Displacement of ethidium bromide from calf thymus DNA assessed as ratio of concentration of ethidium in ethidium DNA complex to drug concentration by fluorometric assay
Type: nucleic-acid assay
Conditions: Bos taurus
Readout label: Kapp (×10⁷ /M)

In the examples that follow, each entry is paired with its recorded Kapp.
CN(C)CCCNc1c([N+](=O)[O-])cc2c3c(cccc13)C(=O)N(CCCN(C)C)C2=O :: 7
CCN(CC)CCCNc1ccc2c3c(cccc13)C(=O)N(CCN(C)C)C2=O :: 1.9

1. CN(C)CCCNc1ccc2c3c(cccc13)C(=O)N(CCN(C)C)C2=O
2. NCCNc1c([N+](=O)[O-])cc2c3c(cccc13)C(=O)N(CCN)C2=O
Among 1 and 2 , which shows a numerically higher Kapp result? Field: selected label. Fill in the label of the entry you choose.
2
(2: 5.3 ×10⁷ /M, 1: 1.9 ×10⁷ /M)
